# system name: T1, L-selectin (LS-Rg) (Homo sapiens, UniProt P14151 P14151:39-332)
# T1 chain: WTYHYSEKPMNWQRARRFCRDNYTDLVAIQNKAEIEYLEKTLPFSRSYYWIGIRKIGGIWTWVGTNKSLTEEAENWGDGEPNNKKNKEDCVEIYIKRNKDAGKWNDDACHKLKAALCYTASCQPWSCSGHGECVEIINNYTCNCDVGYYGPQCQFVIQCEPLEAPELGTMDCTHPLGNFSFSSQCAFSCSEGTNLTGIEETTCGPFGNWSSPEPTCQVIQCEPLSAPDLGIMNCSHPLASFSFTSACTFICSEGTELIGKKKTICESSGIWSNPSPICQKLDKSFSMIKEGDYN
# assay remarks: filter; room temp; 370 pM at 37 C
# experimental conditions: tags: human IgG2 Fc fusion (provided by A. Varki); label: 32P
assay metric: Kd (nM)
Output spec: scalar in nM, unitless text.

Kd recorded for this binder, 174 (ssDNA) DNA: CTACCTACGATCTGACTAGCCATTCACCATGGCCCCTTCCTACGTATGTTCTGCGGGTGGCTTACTCTCATGTAGTTCC , is 0.043
